Tested on: OVMIU (Ovarian Carcinoma)
Assay: combination Emax (second highest fraction inhibited in the dose matrix, 72 h); higher = more inhibition; extreme values may be limits of the assay
REPORTED_ENDPOINT: combination Emax
I'd appreciate a reply containing only the number, no unit.

Recorded combination Emax, per entry:
NC1(C(=O)N[C@@H](CCO)c2ccc(Cl)cc2)CCN(c2ncnc3[nH]ccc23)CC1 [Capivasertib] + CC(=O)c1c(C)c2cnc(Nc3ccc(N4CCNCC4)cn3)nc2n(C2CCCC2)c1=O [Palbociclib] (first compound max 10 µM, 7x7, partner max 10 µM) :: 0.383
Cc1c2c(nn1C)CSCc1cc(n(C)n1)CSc1cc(c3ccccc3c1)OCCCc1c(C(=O)O)n(C)c3c-2c(Cl)ccc13 [AZD5991] + C1CN(CCC1(C(=O)N[C@@H](CCO)C2=CC=C(C=C2)Cl)N)C3=NC=NC4=C3C=CN4 [Capivasertib] (first compound max 1 µM, 7x7, partner max 3 µM) :: 0.353

Answer with reported combination Emax of O=C(c1cc(Cc2n[nH]c(=O)c3ccccc23)ccc1F)N1CCN(C(=O)C2CC2)CC1 [Olaparib] + Cc1c2c(nn1C)CSCc1cc(n(C)n1)CSc1cc(c3ccccc3c1)OCCCc1c(C(=O)O)n(C)c3c-2c(Cl)ccc13 [AZD5991] (first compound max 10 µM, 7x7, partner max 1 µM)
0.104

Please report the measured combination Emax for Cn1cnc2c(F)c(Nc3ccc(Br)cc3Cl)c(C(=O)NOCCO)cc21 [Selumetinib] + CC(C)n1c(=O)n(C)c2cnc3cc(F)c(-c4ccc(OCCCN5CCCCC5)nc4)cc3c21 [AZD1390] (first compound max 10 µM, 7x7, partner max 0.3 µM)
0.402

Cited source: the supplement of paper PMC11061612
